Answer each item with its documented pKd.
measurementTarget: µ opioid receptor (MOR)
Sequence (P35372 whole entry): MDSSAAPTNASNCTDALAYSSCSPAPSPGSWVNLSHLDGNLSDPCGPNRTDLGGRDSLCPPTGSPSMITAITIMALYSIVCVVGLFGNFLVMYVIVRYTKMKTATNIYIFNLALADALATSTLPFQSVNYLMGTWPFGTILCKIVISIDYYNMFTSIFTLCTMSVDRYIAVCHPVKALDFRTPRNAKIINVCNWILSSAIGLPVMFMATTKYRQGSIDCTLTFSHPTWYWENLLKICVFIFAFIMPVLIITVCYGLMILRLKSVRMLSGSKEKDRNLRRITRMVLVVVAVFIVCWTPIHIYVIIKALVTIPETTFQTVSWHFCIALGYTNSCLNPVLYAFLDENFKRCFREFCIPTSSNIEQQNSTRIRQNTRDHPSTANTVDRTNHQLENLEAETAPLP
experimentalDetails: protein binding radioassay
Bridges are numbered along the chain shown (N, C = ends). Where no end group is shown, it is not given here. [ ]: non-standard residue; d: D form.
pKd is a log-scale quantity: -log10 of the concentration expressed in molar.

-- ask So what's the measured pKd for this one? YASPKCFRY[dA]GF[dL]LACT (disulfide 6-16) [DADLE-OL]
-- reply 5.45

-- ask Request: Y[dA]GF[dL]KCFRYPNGVLACT (disulfide 7-17, 18 residues) [DADLE-OL II]
-- reply 6.91
